Provenance of the data: ChEMBL document CHEMBL1933011

Tested on: HepG2
Assay: Cytotoxicity against human HepG2 cells up to 100 uM after 48 hrs by MTT assay
Format: cell-based
Details: hepg2, 48 h
Recorded Endpoint: Activity

Example entries and their recorded answers appear below.
O=S(=O)(c1ccccc1)n1nnnc1-c1ccc2c(c1)OCO2 : Toxic
CC(C)c1ccc(S(=O)(=O)n2nnnc2-c2ccc3c(c2)OCO3)cc1 : Toxic
CC(C)c1ccc(S(=O)(=O)Nc2nc(NS(=O)(=O)c3ccc(C(C)C)cc3)nc(-c3ccc4c(c3)OCO4)n2)cc1 : Toxic
Cc1ccc(S(=O)(=O)Nc2nc(NS(=O)(=O)c3ccc(C)cc3)nc(-c3ccc4c(c3)OCO4)n2)cc1 : Toxic
O=[N+]([O-])c1ccc(S(=O)(=O)n2nnnc2-c2ccc3c(c2)OCO3)cc1 : Toxic
O=S(=O)(Nc1nc(NS(=O)(=O)c2ccc(Cl)cc2)nc(-c2ccc3c(c2)OCO3)n1)c1ccc(Cl)cc1 : Toxic
O=S(=O)(c1ccc(Cl)cc1)n1nnnc1-c1ccc2c(c1)OCO2 : Toxic
Cc1ccc(S(=O)(=O)n2nnnc2-c2ccc3c(c2)OCO3)cc1 : Toxic

Input line: Lab request: please report Activity under test system HepG2 for "O=S(=O)(Nc1nc(NS(=O)(=O)c2ccccc2)nc(-c2ccc3c(c2)OCO3)n1)c1ccccc1"
Output line: Toxic

Input line: Let us now turn to "c1cc2c(cc1-c1nnn[nH]1)OCO2"
Output line: Toxic
